- Tested on: (CUG)10 RNA (SEQ ID NO: 3)
- protocol: SPR binding to immobilized biotinylated RNA
- runConditions: (CUG)10
I'd appreciate it if you could supply Residence time (t1/2) for compound binding to RNA values for the items below.
Provide only the numeric value, understood in min.

Note to self: Residence time (t1/2) for compound binding to RNA recorded for CCc1nc2cc3ccccc3cc2cc1C(=O)N1CCC[C@H]1C(=O)N[C@@H](C/C=C/C[C@H](NC(=O)[C@@H]1CCCN1C(=O)c1cc2cc3ccccc3cc2nc1CC)C(=O)N[C@@H](CCCCN)C(=O)NCCCN)C(=O)N[C@@H](CCCCN)C(=O)NCCCN [Compound 5] was 4.6762

Note to self: Residence time (t1/2) for compound binding to RNA recorded for CCc1nc2cc3ccccc3cc2cc1C(=O)N1CCC[C@H]1C(=O)N[C@@H](C/C=C\C[C@H](NC(=O)[C@@H]1CCCN1C(=O)c1cc2cc3ccccc3cc2nc1CC)C(=O)N[C@@H](CCCCN)C(=O)NCCCN)C(=O)N[C@@H](CCCCN)C(=O)NCCCN [Compound 4] was 9.7882
